Consider the following variants and their measured protein stability index readings.
B1: SASS6 (parent)
chain: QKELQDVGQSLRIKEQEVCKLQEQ

# Variants of: B1
# experiment.summary: protein stability index of a GFP-peptide fusion (GPS, HEK-293T) (PSI 1-6); higher = more stable;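 also: lentivirally expressed fusions sorted by FACS into six bins by GFP to DsRed ratio, PSI derived from sequencing read proportions per bin multiplied by bin number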
# experimental.conditions: c terminus: a fixed tail appended

| variant.id | protein stability index |
| --- | --- |
| S10C | 4.12 |
| I13P | 5.38 |
| Q9L | 4.84 |
| V18I | 4.75 |
| I13H | 4.64 |
| C19R | 5.23 |
| L11P | 5.37 |
| Q24N | 5.39 |
| V7E | 5.11 |
| K20G | 5.36 |
| L21A | 5.02 |
| E15W | 2.06 |
| K14I | 4.43 |
| E15Q | 4.66 |
| L4Q | 4.24 |
| E23P | 4.49 |
| K14V | 4.94 |
| G8H | 5 |
| L11V | 5.39 |
| V18D | 5.94 |
| L21H | 5.57 |
| E23G | 5.58 |

Values were extracted from the supplement of paper PMC10567573.
